# assay.overview: Active ingredient assay and recovery on storage (Table 2)
# Format: physicochemical
# setup.conditions: 3 month storage, 25° C.
Documented Assay (% w/w) across a set of compounds
The answer is to be given in % w/w; state only the numeric part.

# compound, result.unit, Assay (% w/w)
rows = [
    ("CCCCCCCC(=O)Oc1c(Br)cc(C#N)cc1Br [Bromoxynil, Bromoxynil Octanoate]", "% w/w", 32.57),
]

Asked: What value of Assay (% w/w) has been recorded for this entry: COc1nn(C(=O)[N-]S(=O)(=O)c2ccccc2OC(F)(F)F)c(=O)n1C.[Na+] [Flucarbazone, Flucarbazone Sodium]
Given back: 1.99

Asked: Can you look up the measured Assay (% w/w) of CCCCCCC(C)OC(=O)COc1nc(F)c(Cl)c(N)c1Cl (centres unmarked) [Fluroxypyr, Fluroxypyr Meptyl] for me?
Given back: 11.68

Asked: GET /values?readout=Assay (% w/w)&item= CCCCCC(C)OC(=O)COc1ccc(Cl)c2cccnc12 (centres unmarked) [cloquintocet, Cloquintocet Mexyl]
Given back: 0.41

Asked: Please report the recorded Assay (% w/w) for CCCCC(CC)COC(=O)COc1ccc(Cl)cc1C (centres unmarked) [MCPA] .
Given back: 35.23

* * *

Recorded Assay (% w/w) by entry
# assay.overview: Active ingredient assay and recovery on storage (Table 2)
# Type: physicochemical
# setup.conditions: F/T Sample
Give just the numeric value; % w/w need not be written.

# compound, result.unit, Assay (% w/w)
rows = [
    ("CCCCCCCC(=O)Oc1c(Br)cc(C#N)cc1Br [Bromoxynil, Bromoxynil Octanoate]", "% w/w", 31.42),
    ("CCCCCC(C)OC(=O)COc1ccc(Cl)c2cccnc12 (centres unmarked)", "% w/w", 0.41),
    ("CCCCCCC(C)OC(=O)COc1nc(F)c(Cl)c(N)c1Cl (centres unmarked)", "% w/w", 11.61),
    ("CCCCC(CC)COC(=O)COc1ccc(Cl)cc1C (centres unmarked)", "% w/w", 35.06),
]

// moving on: another record for Assay (% w/w)
Asked: Which Assay (% w/w) reading was recorded for the compound COc1nn(C(=O)[N-]S(=O)(=O)c2ccccc2OC(F)(F)F)c(=O)n1C.[Na+] [Flucarbazone, Flucarbazone Sodium] ?
Given back: 1.92

* * *

Entries and their Assay (% w/w) values follow.
# assay.overview: Active ingredient assay on storage, SCB239-12 (Table 3)
# Format: physicochemical
# setup.conditions: F/T sample
Please answer using the number first and the unit second.

Worked examples follow.
# molecule, Assay (% w/w)
rows = [
    ("CCCCCCC(C)OC(=O)COc1nc(F)c(Cl)c(N)c1Cl (centres unmarked) [Fluroxypyr, Fluroxypyr Meptyl]", "11.28 % w/w"),
    ("CCCCCC(C)OC(=O)COc1ccc(Cl)c2cccnc12 (centres unmarked) [cloquintocet, Cloquintocet Mexyl]", "0.36 % w/w"),
    ("COc1nn(C(=O)[N-]S(=O)(=O)c2ccccc2OC(F)(F)F)c(=O)n1C.[Na+] [Flucarbazone, Flucarbazone Sodium]", "1.80 % w/w"),
    ("CCCCCCCC(=O)Oc1c(Br)cc(C#N)cc1Br [Bromoxynil, Bromoxynil Octanoate]", "31.13 % w/w"),
]

Please turn your attention to the following entry.
Asked: I have this molecule here, CCCCC(CC)COC(=O)COc1ccc(Cl)cc1C (centres unmarked) [MCPA] , and I need its recorded Assay (% w/w).
Given back: 34.30 % w/w
